Source listed as ChEMBL document CHEMBL5724914.

# EXPERIMENTAL CONDITIONS: human gut metagenome, 24 h, 2 µM; also: call rule not given here
MEASURED QUANTITY: Bacterial Biotransformation

Worked cases, answers included:
CN1CCN(C(=O)O[C@H]2c3nccnc3C(=O)N2c2ccc(Cl)cn2)CC1 [ESZOPICLONE] | Compound NOT metabolized
CN1C(=O)CC(C)(c2ccccc2)C1=O (stereo not drawn) [METHSUXIMIDE] | Compound NOT metabolized
CN(C)CCC=C1c2ccccc2C=Cc2ccccc21 [CYCLOBENZAPRINE] | Compound metabolized
C[C@@H]1C[C@H]2[C@@H]3CCC4=CC(=O)C=C[C@]4(C)[C@@]3(F)[C@@H](O)C[C@]2(C)[C@@]1(O)C(=O)CO [DEXAMETHASONE] | Compound NOT metabolized
COc1cc2nc(N3CCN(C(=O)c4ccco4)CC3)nc(N)c2cc1OC [PRAZOSIN] | Compound metabolized
COc1ccc(CCN(C)CCCC(C#N)(c2ccc(OC)c(OC)c2)C(C)C)cc1OC (stereo not drawn) | Compound metabolized
COCCc1ccc(OCC(O)CNC(C)C)cc1.COCCc1ccc(OCC(O)CNC(C)C)cc1.O=C(O)C(O)C(O)C(=O)O (stereo not drawn) [METOPROLOL TARTRATE] | Compound metabolized
CCCCC1=NC2(CCCC2)C(=O)N1Cc1ccc(-c2ccccc2-c2nnn[nH]2)cc1 [IRBESARTAN] | Compound metabolized

Looking for the measured Bacterial Biotransformation of O=c1[nH]c2ccccc2n1CCCN1CCC(n2c(=O)[nH]c3cc(Cl)ccc32)CC1 [DOMPERIDONE] , can you help?
Compound NOT metabolized

Sample N#Cc1ccc(C(c2ccc(C#N)cc2)n2cncn2)cc1 [LETROZOLE] — what was its Bacterial Biotransformation?
Compound NOT metabolized

For the compound shown here, COc1ccccc1OCC(O)COC(N)=O (stereo not drawn) [METHOCARBAMOL] , give the reported Bacterial Biotransformation.
Compound NOT metabolized

# get_value(readout='Bacterial Biotransformation', item= CC(=O)OCC(=O)[C@@]12N=C(C)O[C@@H]1C[C@H]1[C@@H]3CCC4=CC(=O)C=C[C@]4(C)[C@H]3[C@@H](O)C[C@@]12C [DEFLAZACORT] )
Compound metabolized

----------
# EXPERIMENTAL CONDITIONS: human gut metagenome, 24 h, 2 µM
MEASURED QUANTITY: Bacterial Biotransformation

# example entries with known answers
CCC(=O)NCC[C@@H]1CCc2ccc3c(c21)CCO3 [RAMELTEON] | Compound metabolized
CC(C)NCC(O)COc1ccc(CCOCC2CC2)cc1 (stereo not drawn) [BETAXOLOL] | Compound metabolized
CNC(=C[N+](=O)[O-])NCCSCc1csc(CN(C)C)n1 [NIZATIDINE] | Compound metabolized
CN/C(=N/CCSCc1nc[nH]c1C)NC#N [CIMETIDINE] | Compound NOT metabolized
CC[C@H](C)C(=O)O[C@H]1C[C@@H](C)C=C2C=C[C@H](C)[C@H](CC[C@@H]3C[C@@H](O)CC(=O)O3)[C@H]21 [LOVASTATIN] | Compound NOT metabolized
CN(C)C(=O)C(CCN1CCC(O)(c2ccc(Cl)cc2)CC1)(c1ccccc1)c1ccccc1 [LOPERAMIDE] | Compound metabolized
CN1CCN(CC/C=C2/c3ccccc3Sc3ccc(S(=O)(=O)N(C)C)cc32)CC1 [THIOTHIXENE] | Compound metabolized
COc1ccccc1OCC(O)CN1CCN(CC(=O)Nc2c(C)cccc2C)CC1 (stereo not drawn) [RANOLAZINE] | Compound NOT metabolized

Quick check: Bacterial Biotransformation of CC[C@@H](CO)NC(=O)[C@@H]1C=C2c3cccc4c3c(cn4C)C[C@H]2N(C)C1.O=C(O)/C=C\C(=O)O [METHYSERGIDE MALEATE] ?
Compound metabolized

Please look up its Bacterial Biotransformation: CC(C(=O)O)c1ccc2c(c1)Cc1cccnc1O2 (stereo not drawn) [PRANOPROFEN]
Compound metabolized

Could you tell me which Bacterial Biotransformation is on file for CC(C)(C#N)c1cc(Cn2cncn2)cc(C(C)(C)C#N)c1 [ANASTROZOLE] ?
Compound NOT metabolized

What Bacterial Biotransformation value was documented for this molecule, C=CCN1CC[C@]23c4c5ccc(O)c4O[C@H]2C(=O)CC[C@@]3(O)[C@H]1C5 [NALOXONE] ?
Compound NOT metabolized

Requested read-out: Bacterial Biotransformation. Entry: CCc1nn(CCCN2CCN(c3cccc(Cl)c3)CC2)c(=O)n1CCOc1ccccc1 [NEFAZODONE]
Compound metabolized

Recorded Bacterial Biotransformation of CC(=O)O[C@]1(C(C)=O)CC[C@H]2[C@@H]3C=C(Cl)C4=CC(=O)[C@@H]5C[C@@H]5[C@]4(C)[C@H]3CC[C@@]21C [CYPROTERONE ACETATE] , please.
Compound metabolized

Fill in: Bacterial Biotransformation of Nc1c2c(nc3ccccc13)CCCC2 [TACRINE] is ___
Compound metabolized

Can you share its Bacterial Biotransformation? I mean this molecule: Cc1cn([C@H]2C[C@H](N=[N+]=[N-])[C@@H](CO)O2)c(=O)[nH]c1=O [ZIDOVUDINE]
Compound NOT metabolized

Recorded Bacterial Biotransformation for COc1cc2nc(N(C)CCCNC(=O)C3CCCO3)nc(N)c2cc1OC (stereo not drawn) [ALFUZOSIN] , please?
Compound metabolized

Fill blank: measured Bacterial Biotransformation of the molecule Cc1ccc(S(=O)(=O)NC(=O)NN2CCCCCC2)cc1 [TOLAZAMIDE] is ____.
Compound metabolized
